All figures here come from patent US10251952B2.

study_system: human tau(pS422) (Homo sapiens, UniProt P10636, S739X)
assay_protocol: BIAcore kinetic screening and kinetic rates of humanized VH/VL combinations
Type: binding
run_parameters: 25 °C; VL17 or VL19 with VH variants
Quick rule for you: kd under 0.002 s⁻¹ gets y, anything else gets n.

molecule: VL17 with VH04: anti-human tau(pS422) antibody; VH SEQ ID NO: 49, VL SEQ ID NO: 37 (antibody, V domains shown, humanized sequence) VH: QSVLESGGGLVQPGGSLRLSCAVSGFSLSSNAINWVRQAPGKGLEWVGYIAVSGNTYYASWAKGRFTISRDSTTLYLQMNSLRAEDTAVYYCGKSNIWGPGTLVTVSS VL: DIQMTQSPSSLSASVGDRVTITCRSSQSVRTNKLAWFQQKPGQPPKRLIYSASTLDFGVPSRFSGSGSGTEFTLTISSLQPEDFATYYCLGYFDCSIADCVAFGGGTKVEIK
assigned_class: n
//
molecule: VL19 with VH23: anti-human tau(pS422) antibody; VH SEQ ID NO: 55, VL SEQ ID NO: 38 (antibody, V domains shown, humanized sequence) VH: EVQVLESGGGLVQPGGSLRLSCAVSGFSLSSNAINWVRQAPGKGLEWVGYIAVSGNTYYADSVKGRFTISKDNSKNTVYLQMNSLRAEDTAVYYCGKSNIWGQGTLVTVSS VL: AQVMTQSPSSLSASVGDRVTITCRSSQSVRTNKLAWFQQKPGQPPKRLIYSASTLDFGVPSRFSGSGSGTEFTLTISSLQPEDFATYYCLGYFDCSIADCVAFGGGTKVEIK
assigned_class: y
//
molecule: VL19 with VH01: anti-human tau(pS422) antibody; VH SEQ ID NO: 46, VL SEQ ID NO: 38 (antibody, V domains shown, humanized sequence) VH: QQLVESGGGLVQPGGSLRLSCAASGFSLSSNAINWVRQAPGKGLEWVGYIAVSGNTYYASWAKGRFTISRDNSKNTLYLQMNSLRAEDTAVYYCGKSNIWGQGTLVTVSS VL: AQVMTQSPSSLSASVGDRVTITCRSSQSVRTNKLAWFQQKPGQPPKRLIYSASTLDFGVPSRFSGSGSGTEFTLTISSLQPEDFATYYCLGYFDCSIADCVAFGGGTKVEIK
assigned_class: y
//
molecule: VH14 with VL17: anti-human tau(pS422) antibody; VH SEQ ID NO: 50, VL SEQ ID NO: 37 (antibody, V domains shown, humanized sequence) VH: QQLVESGGGLVQPGGSLRLSCAASGFSLSSNAINWVRQAPGKGLEWVGYIAVSGNTYYASWAKGRFTISRDNSKNTLYLQMNSLRAEDTAVYYCGKSNIWGPGTLVTVSS VL: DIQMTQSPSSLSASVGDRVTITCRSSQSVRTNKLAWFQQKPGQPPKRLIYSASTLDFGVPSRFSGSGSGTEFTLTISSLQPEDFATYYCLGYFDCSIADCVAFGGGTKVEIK
assigned_class: n
